target: T1, FX activation peptide 12-mer DSITWKPYDAAD (human); assay: peptide ELISA
T1 peptide: DSITWKPYDAAD-biotin
Ends that are not written are not given here.
// reported ELISA signal relative to background for each item listed

>  <binder>
Nb 501A02 (VHH, monovalent control Nanobody; also called control Nanobody; not shown: C-terminal FLAG3 and HIS6 tag) VHH: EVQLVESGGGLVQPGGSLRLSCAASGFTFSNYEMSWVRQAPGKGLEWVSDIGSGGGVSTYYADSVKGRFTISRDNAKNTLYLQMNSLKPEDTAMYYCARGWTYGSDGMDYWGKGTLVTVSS

>  <ELISA signal relative to background>
0.79

$$$$
>  <binder>
Nb 701C06 (VHH, monovalent Nanobody; not shown: C-terminal FLAG3 and HIS6 tag) VHH: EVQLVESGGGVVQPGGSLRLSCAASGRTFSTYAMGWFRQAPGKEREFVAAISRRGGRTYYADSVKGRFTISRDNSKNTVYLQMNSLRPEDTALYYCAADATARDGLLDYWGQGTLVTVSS

>  <ELISA signal relative to background>
0.93

$$$$
>  <binder>
Nb 729C08 (VHH, monovalent Nanobody; also called Nb 729008; not shown: C-terminal FLAG3 and HIS6 tag) VHH: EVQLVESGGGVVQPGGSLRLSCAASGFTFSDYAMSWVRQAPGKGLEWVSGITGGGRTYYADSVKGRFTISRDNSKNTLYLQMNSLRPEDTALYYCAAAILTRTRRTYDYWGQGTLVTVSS

>  <ELISA signal relative to background>
1.09

$$$$
>  <binder>
Nb 730C03 (VHH, monovalent Nanobody; also called Nb 730003; not shown: C-terminal FLAG3 and HIS6 tag) VHH: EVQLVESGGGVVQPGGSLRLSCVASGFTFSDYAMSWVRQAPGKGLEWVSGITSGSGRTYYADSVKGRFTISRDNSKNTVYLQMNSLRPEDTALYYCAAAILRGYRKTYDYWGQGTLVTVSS

>  <ELISA signal relative to background>
1.22

$$$$
